Hello, the source for this data is PubChem BioAssay, in case you need it.

Reported GFP response vs DMSO values for the following compounds.
experimental-details: RPL19A-GFP modulators, yeast TOR pathway, confirmation, cell-based, S. cerevisiae, flow cytometry, cherry picks, mother/daughter gates (AID 2270)
condition-notes: S. cerevisiae RPL19A-GFP strain, 3 h, at 10 µM, hits give low values, 100 = same GFP as DMSO wells
Numeric answer only, unit % assumed.

# compound, value-unit, readout-value
rows = [
    ("O=C(c1ccc2ccccc2c1)N1CCN(c2ccc(O)cc2)CC1", "%", 101),
    ("O=S(=O)(c1ccc(NC(=S)N/N=C/c2cccc(Oc3ccccc3)c2)cc1)N1CCOCC1", "%", 97.8),
]

GFP response vs DMSO in this record for Brc1cc(Br)c2nc(-c3cccs3)ccc2c1 : 97.4
